Entry source: ChEMBL document CHEMBL2010770

Tested on: HSC-3
test-summary: Selectivity index, ratio of CC50 for human normal cells to CC50 for human HSC3 cells
Assay type: functional
Please use y whenever Ratio is not below 20, and n whenever it is.

The examples below pair each entry with its known result.
O=C1/C(=C/c2ccccc2)CN(C(=O)CCCCCCC(=O)N2C/C(=C\c3ccccc3)C(=O)/C(=C/c3ccccc3)C2)C/C1=C\c1ccccc1 :: y
O=C1/C(=C/c2ccccc2)CN(C(=O)/C=C/C(=O)N2C/C(=C\c3ccccc3)C(=O)/C(=C/c3ccccc3)C2)C/C1=C\c1ccccc1 :: y
N[C@@H](Cc1ccc(N(CCCl)CCCl)cc1)C(=O)O :: n

Prompt: Hello, I need to know if O=C1/C(=C/c2ccccc2)CN(C(=O)CCCC(=O)N2C/C(=C\c3ccccc3)C(=O)/C(=C/c3ccccc3)C2)C/C1=C\c1ccccc1 has measured Ratio not below 20. Thanks!
Completion: n

Prompt: Hello, I need to know if O=C1/C(=C/c2ccccc2)CN(C(=O)CCC(=O)N2C/C(=C\c3ccccc3)C(=O)/C(=C/c3ccccc3)C2)C/C1=C\c1ccccc1 has measured Ratio not below 20. Thanks!
Completion: y

Prompt: Hello, I need to know if O=C1/C(=C/c2ccccc2)CN(C(=O)c2cccc(C(=O)N3C/C(=C\c4ccccc4)C(=O)/C(=C/c4ccccc4)C3)c2)C/C1=C\c1ccccc1 has measured Ratio not below 20. Thanks!
Completion: n

----------
target-desc: ATP-dependent translocase ABCB1 (Homo sapiens)
Sequence (P08183 whole entry): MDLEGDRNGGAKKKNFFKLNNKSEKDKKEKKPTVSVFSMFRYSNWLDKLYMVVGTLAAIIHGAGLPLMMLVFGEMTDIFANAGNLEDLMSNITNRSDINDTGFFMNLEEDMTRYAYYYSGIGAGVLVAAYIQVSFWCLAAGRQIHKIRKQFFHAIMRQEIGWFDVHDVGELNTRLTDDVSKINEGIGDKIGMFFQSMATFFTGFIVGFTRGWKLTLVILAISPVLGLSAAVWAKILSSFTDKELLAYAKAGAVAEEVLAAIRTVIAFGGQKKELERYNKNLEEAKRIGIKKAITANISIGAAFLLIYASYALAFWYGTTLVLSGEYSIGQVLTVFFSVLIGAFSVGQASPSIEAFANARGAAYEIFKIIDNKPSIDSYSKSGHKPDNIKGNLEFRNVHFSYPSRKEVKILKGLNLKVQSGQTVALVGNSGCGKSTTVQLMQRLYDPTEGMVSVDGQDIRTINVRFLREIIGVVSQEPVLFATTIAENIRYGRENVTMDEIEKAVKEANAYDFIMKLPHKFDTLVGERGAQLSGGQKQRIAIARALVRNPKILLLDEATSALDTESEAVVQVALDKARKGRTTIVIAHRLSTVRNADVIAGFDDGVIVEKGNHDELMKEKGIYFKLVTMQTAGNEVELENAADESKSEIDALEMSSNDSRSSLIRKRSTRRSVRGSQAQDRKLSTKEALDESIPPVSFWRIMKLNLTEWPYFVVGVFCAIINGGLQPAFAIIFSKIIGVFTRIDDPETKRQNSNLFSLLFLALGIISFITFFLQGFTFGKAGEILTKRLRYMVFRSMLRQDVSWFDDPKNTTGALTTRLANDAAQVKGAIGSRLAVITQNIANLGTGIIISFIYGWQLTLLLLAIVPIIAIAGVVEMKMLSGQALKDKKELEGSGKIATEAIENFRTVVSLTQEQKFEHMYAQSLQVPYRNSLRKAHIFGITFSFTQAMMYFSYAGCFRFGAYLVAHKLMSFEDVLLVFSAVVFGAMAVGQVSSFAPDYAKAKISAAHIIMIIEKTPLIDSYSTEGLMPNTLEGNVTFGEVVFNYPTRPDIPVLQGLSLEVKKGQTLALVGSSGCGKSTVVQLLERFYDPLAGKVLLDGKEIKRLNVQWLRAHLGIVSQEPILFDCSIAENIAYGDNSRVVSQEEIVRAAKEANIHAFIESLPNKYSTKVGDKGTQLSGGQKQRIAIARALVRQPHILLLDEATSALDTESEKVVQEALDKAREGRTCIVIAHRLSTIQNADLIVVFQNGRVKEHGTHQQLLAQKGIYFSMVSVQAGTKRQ
test-summary: Inhibition of human MDR1-mediated multidrug resistant in mouse L5178Y cells at 40 uM treated 10 mins before rhodamine 123 challenge measured after 20 mins relative to control
Format: cell-based
Please use t whenever Ratio is not below 50, and f whenever it is.

O=C1/C(=C/c2ccccc2)CN(C(=O)/C=C/C(=O)N2C/C(=C\c3ccccc3)C(=O)/C(=C/c3ccccc3)C2)C/C1=C\c1ccccc1 :: t

Prompt: Hello, I need to know if O=C1/C(=C/c2ccccc2)CN(C(=O)/C=C/C=C/C(=O)N2C/C(=C\c3ccccc3)C(=O)/C(=C/c3ccccc3)C2)C/C1=C\c1ccccc1 has measured Ratio not below 50. Thanks!
Completion: f

Prompt: Hello, I need to know if O=C1/C(=C/c2ccccc2)CN(C(=O)C#CC(=O)N2C/C(=C\c3ccccc3)C(=O)/C(=C/c3ccccc3)C2)C/C1=C\c1ccccc1 has measured Ratio not below 50. Thanks!
Completion: f

Prompt: Hello, I need to know if O=C1/C(=C/c2ccccc2)CN(C(=O)c2cccc(C(=O)N3C/C(=C\c4ccccc4)C(=O)/C(=C/c4ccccc4)C3)c2)C/C1=C\c1ccccc1 has measured Ratio not below 50. Thanks!
Completion: t

Prompt: Hello, I need to know if O=C1/C(=C/c2ccccc2)CN(C(=O)CCCC(=O)N2C/C(=C\c3ccccc3)C(=O)/C(=C/c3ccccc3)C2)C/C1=C\c1ccccc1 has measured Ratio not below 50. Thanks!
Completion: t

Prompt: Hello, I need to know if O=C1/C(=C/c2ccccc2)CN(C(=O)C(=O)N2C/C(=C\c3ccccc3)C(=O)/C(=C/c3ccccc3)C2)C/C1=C\c1ccccc1 has measured Ratio not below 50. Thanks!
Completion: f

----------
The entries below come with measured CC50 at 48 h values attached.
test-summary: Cytotoxicity against human HGF cells after 48 hrs
Assay type: cell-based
Form entry: value (µM) — number only.

These recorded examples may help you get a feel for the data.
O=C1/C(=C/c2ccccc2)CN(C(=O)/C=C/C(=O)N2C/C(=C\c3ccccc3)C(=O)/C(=C/c3ccccc3)C2)C/C1=C\c1ccccc1 :: 17
O=C1/C(=C/c2ccccc2)CN(C(=O)CCC(=O)N2C/C(=C\c3ccccc3)C(=O)/C(=C/c3ccccc3)C2)C/C1=C\c1ccccc1 :: 10
O=C1/C(=C/c2ccccc2)CN(C(=O)CC(=O)N2C/C(=C\c3ccccc3)C(=O)/C(=C/c3ccccc3)C2)C/C1=C\c1ccccc1 :: 1.1
O=C1/C(=C/c2ccccc2)CN(C(=O)CCCCCCC(=O)N2C/C(=C\c3ccccc3)C(=O)/C(=C/c3ccccc3)C2)C/C1=C\c1ccccc1 :: 13
O=C1/C(=C/c2ccccc2)CN(C(=O)C(=O)N2C/C(=C\c3ccccc3)C(=O)/C(=C/c3ccccc3)C2)C/C1=C\c1ccccc1 :: 3.8
O=C1/C(=C/c2ccccc2)CN(C(=O)CCCC(=O)N2C/C(=C\c3ccccc3)C(=O)/C(=C/c3ccccc3)C2)C/C1=C\c1ccccc1 :: 2.9

Prompt: Form field: reported CC50 at 48 h of O=C1/C(=C/c2ccccc2)CN(C(=O)/C=C/C=C/C(=O)N2C/C(=C\c3ccccc3)C(=O)/C(=C/c3ccccc3)C2)C/C1=C\c1ccccc1
Completion: 39

Prompt: Form field: reported CC50 at 48 h of O=C1/C(=C/c2ccccc2)CN(C(=O)C#CC(=O)N2C/C(=C\c3ccccc3)C(=O)/C(=C/c3ccccc3)C2)C/C1=C\c1ccccc1
Completion: 8.5

Prompt: Form field: reported CC50 at 48 h of O=C1/C(=C/c2ccccc2)CN(C(=O)c2cccc(C(=O)N3C/C(=C\c4ccccc4)C(=O)/C(=C/c4ccccc4)C3)c2)C/C1=C\c1ccccc1
Completion: 42

Prompt: Form field: reported CC50 at 48 h of O=C1/C(=C/c2ccccc2)CN(C(=O)c2ccccc2C(=O)N2C/C(=C\c3ccccc3)C(=O)/C(=C/c3ccccc3)C2)C/C1=C\c1ccccc1
Completion: 5.7
